# Tested on: sarcoma SJSA-1 tumor model
# assay_summary: Efficacy in animal model of sarcoma SJSA-1, 30 mg/kg once a week for two weeks (Example 40)
# Format: in vivo, BALB/c mice
# experimental_conditions: 30 mg/kg once a week for two weeks; Day 14
Where a SMILES comes first, the peptide text is derived from it. The star is where a group is joined. NEt(2-(20S-CPT-7-yl)ethyl) = CCN(CCc1c2c(nc3ccccc13)-c1cc3c(c(=O)n1C2)COC(=O)[C@]3(O)CC)*; X6 = CCCCCN(CCc1c2c(nc3ccccc13)-c1cc3c(c(=O)n1C2)COC(=O)[C@]3(O)CC)*; X2 = CCCCN(CCc1c2c(nc3ccccc13)-c1cc3c(c(=O)n1C2)COC(=O)[C@]3(O)CC)*; X4 = CCCN(CCc1c2c(nc3ccccc13)-c1cc3c(c(=O)n1C2)COC(=O)[C@]3(O)CC)*; X5 = CC[C@@]1(O)C(=O)OCc2c1cc1n(c2=O)Cc2c-1nc1ccccc1c2CCN(CC(C)C)*; Propanoyl(3-maleimido) = O=C1C=CC(=O)N1CCC(=O)*; PEG6 = NCCOCCOCCOCCOCCOCCOCCC(=O)O
measured_quantity: SJSA-1 (sarcoma tissue) growth rate (%) on Day 14
Just the number please, in %, no unit attached.

Request: Recall the recorded SJSA-1 (sarcoma tissue) growth rate (%) on Day 14 for CCCN(CCc1c2c(nc3ccccc13)-c1cc3c(c(=O)n1C2)COC(=O)[C@]3(O)CC)C(=O)[C@H](CC(C)C)NC(=O)[C@H](CC(N)=O)NC(=O)[C@H](C)NC(=O)[C@H](C)NC(=O)CCOCCOCCOCCOCCOCCOCCNC(=O)CCN1C(=O)C=CC1=O [MI-6PEG-AANL-D3] ({Propanoyl(3-maleimido)-PEG6}-AANL-X4) with sarcoma SJSA-1 tumor model and state it.
Response: 1316.37

Request: Also need CCCCCN(CCc1c2c(nc3ccccc13)-c1cc3c(c(=O)n1C2)COC(=O)[C@]3(O)CC)C(=O)CNC(=O)[C@H](CC(N)=O)NC(=O)[C@H](C)NC(=O)[C@H](C)NC(=O)CCOCCOCCOCCOCCOCCOCCNC(=O)CCN1C(=O)C=CC1=O [MI-6PEG-AANG-D4] ({Propanoyl(3-maleimido)-PEG6}-AANG-X6) , thanks.
Response: 941.81

Request: Now try CCCN(CCc1c2c(nc3ccccc13)-c1cc3c(c(=O)n1C2)COC(=O)[C@]3(O)CC)C(=O)CNC(=O)[C@H](CC(N)=O)NC(=O)[C@H](C)NC(=O)[C@H](C)NC(=O)CCOCCOCCOCCOCCOCCOCCNC(=O)CCN1C(=O)C=CC1=O [MI-6PEG-AANG-D3] ({Propanoyl(3-maleimido)-PEG6}-AANG-X4) .
Response: 1002.12

Request: Also check `CC[C@@]1(O)C(=O)OCC2=C1C=C1c3nc4ccccc4c(CCN(C(=O)OCc4ccc(NC(=O)[C@H](CC(N)=O)NC(=O)[C@H](C)NC(=O)[C@H](C)NC(=O)CCOCCOCCOCCOCCOCCOCCNC(=O)CCN5C(=O)C=CC5=O)cc4)C(C)C)c3CN1C2`
Response: 1005.49

Request: Try this molecule too: CCN(CCc1c2c(nc3ccccc13)-c1cc3c(c(=O)n1C2)COC(=O)[C@]3(O)CC)C(=O)[C@H](CC(C)C)NC(=O)[C@H](CC(N)=O)NC(=O)[C@H](C)NC(=O)[C@H](C)NC(=O)CCOCCOCCOCCOCCOCCOCCNC(=O)CCN1C(=O)C=CC1=O [MI-6PEG-AANL-D2] ({Propanoyl(3-maleimido)-PEG6}-AANL-{NEt(2-(20S-CPT-7-yl)ethyl)})
Response: 1623.94

Request: Query CC[C@@]1(O)C(=O)OCc2c1cc1n(c2=O)Cc2c-1nc1ccccc1c2CCN(CC(C)C)C(=O)[C@H](CC(C)C)NC(=O)[C@H](CC(N)=O)NC(=O)[C@H](C)NC(=O)[C@H](C)NC(=O)CCOCCOCCOCCOCCOCCOCCNC(=O)CCN1C(=O)C=CC1=O [MI-6PEG-AANL-D5] ({Propanoyl(3-maleimido)-PEG6}-AANL-X5) next
Response: 979.44

Request: Try CCCCN(CCc1c2c(nc3ccccc13)-c1cc3c(c(=O)n1C2)COC(=O)[C@]3(O)CC)C(=O)[C@H](CC(C)C)NC(=O)[C@H](CC(N)=O)NC(=O)[C@H](C)NC(=O)[C@H](C)NC(=O)CCOCCOCCOCCOCCOCCOCCNC(=O)CCN1C(=O)C=CC1=O [MI-6PEG-AANL-D4] ({Propanoyl(3-maleimido)-PEG6}-AANL-X2) next.
Response: 1137.43
